Data credit: patent US5807850A

Parameter IC50: see the listing below.
System: calvaria
test-name: Inhibition of bone resorption (45Ca release from calvaria stimulated with hPTH (1-34), method of Raisz)
Assay type: cell-based, new born ICR mouse
setup-conditions: Mus musculus, 72 h; 45Ca release, 50 nM hPTH (1-34), 3 days incubation; test concentrations 0.04, 0.2 and 1 μM; mean of 4 pairs; read-out: IC50 (inhibition of bone resorption)
Reply numerically in nM, unit not repeated.

Solved entries:
COc1ccc(CN2N=C(c3ccc(Cl)cc3)c3ccccc3-n3c(C)nnc32)cc1OC; 800
Cc1sc2c(c1C)C(c1ccc(Cl)cc1)=NN(Cc1cccnc1)c1nnc(C)n1-2; 18

Query CCc1cc2c(s1)-n1c(C)nnc1N(Cc1cccnc1)N=C2c1ccccc1 yields IC50 of 810

Query Cc1nnc2n1-c1ccccc1C(c1ccc(Cl)cc1)=NN2Cc1ccccc1 yields IC50 of 560

Query Cc1ccc(C2=NN(Cc3ccncc3)c3nnc(C)n3-c3ccccc32)cc1 yields IC50 of 410

Query COc1cccc(CN2N=C(c3ccc(Cl)cc3)c3ccccc3-n3c(C)nnc32)c1 yields IC50 of 560

Query CCc1cc2c(s1)-n1c(C)nnc1N(Cc1ccncc1)N=C2c1ccc(Cl)cc1 yields IC50 of 450

Query CCOc1ccc(CN2N=C(c3ccc(Cl)cc3)c3ccccc3-n3c(C)nnc32)cc1 yields IC50 of 790
